Just for reference, patent US9242970B2 is where these values come from.

Target: human orexin-1 receptor (Homo sapiens (Human), UniProt O43613)
Sequence (O43613 whole entry): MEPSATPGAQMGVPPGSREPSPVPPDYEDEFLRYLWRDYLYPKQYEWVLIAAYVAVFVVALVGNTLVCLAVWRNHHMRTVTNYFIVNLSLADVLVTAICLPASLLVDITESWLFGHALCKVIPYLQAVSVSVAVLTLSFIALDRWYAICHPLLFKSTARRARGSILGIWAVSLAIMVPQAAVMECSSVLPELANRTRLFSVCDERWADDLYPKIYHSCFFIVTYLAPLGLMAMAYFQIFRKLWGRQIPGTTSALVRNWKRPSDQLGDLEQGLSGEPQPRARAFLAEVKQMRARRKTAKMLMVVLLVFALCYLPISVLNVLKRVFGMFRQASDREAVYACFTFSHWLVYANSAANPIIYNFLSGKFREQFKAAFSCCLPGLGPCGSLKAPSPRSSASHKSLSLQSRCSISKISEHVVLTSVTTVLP
Experiment: In vitro assay: intracellular calcium measurements (FLIPR), antagonistic activity
Assay type: cell-based
Details: CHO cells, 3 nM orexin-A, compound incubation 120 min; marked values are geometric means of n = 2-6; read-out: IC50 OX1
pIC50: −log10 of the molar value.
Category key, based on recorded pIC50: category 1: < 6; category 2: ≥ 6 and < 7; category 3: ≥ 7

Req: Band assignment needed for COc1ccc2nc(C)oc2c1C1CCCC(=O)N1Cc1ccc2ccccc2n1 (centres unmarked) [Example 279] please.
Resp: category 2

Req: Assign a bin to CC1CC(c2ccccc2-c2ccccc2)N(Cc2cccc(-c3ccccc3)c2)C1=O (centres unmarked) [Example 289]
Resp: category 2

Req: Class for COc1cccc(OC)c1C1CCCC(=O)N1Cc1cccc(-n2ccnn2)c1 (centres unmarked) [Example 46] ?
Resp: category 2

Req: # bin label for COc1ccnc(OC)c1C1CCCC(=O)N1Cc1cccc(-c2nccs2)c1 (centres unmarked) [Example 53]
Resp: category 3

Req: Band of COc1cccc(OC)c1C1CCCC(=O)N1Cc1ccnc(-n2cccn2)c1 (centres unmarked) [Example 52] ?
Resp: category 3

Req: Which pIC50 band matches CCOc1ccc(F)c(F)c1[C@@H]1C[C@@H](Cl)C(=O)N1Cc1ccc(OC(F)(F)F)cc1 (racemic) [Example 346] ?
Resp: category 1

Req: Given COc1cccc(OC)c1C1CC(C)C(=O)N1Cc1ccc(F)c(-c2ccccn2)c1 (centres unmarked) [Example 153] , name the class its pIC50 places it in.
Resp: category 3

Req: The entry to classify is CC1CC(c2c(F)cccc2OCCO)N(Cc2ccc(OC(F)(F)F)cc2)C1=O (centres unmarked) [Example 416] ; which class holds it?
Resp: category 1

Req: Returns: class label. Input: COc1ccc2nc(C)oc2c1C1CCCC(=O)N1Cc1cccc(-c2ccccc2)c1 (centres unmarked) [Example 440]
Resp: category 3

Req: Categorize the following entry: COc1cccc(OC)c1C1CCC(=O)N1Cc1ccc(Oc2ccccc2)cc1 (centres unmarked) [Example 118]
Resp: category 2

---

Target: human orexin-2 receptor (Homo sapiens (Human))
Sequence (O43614 whole entry): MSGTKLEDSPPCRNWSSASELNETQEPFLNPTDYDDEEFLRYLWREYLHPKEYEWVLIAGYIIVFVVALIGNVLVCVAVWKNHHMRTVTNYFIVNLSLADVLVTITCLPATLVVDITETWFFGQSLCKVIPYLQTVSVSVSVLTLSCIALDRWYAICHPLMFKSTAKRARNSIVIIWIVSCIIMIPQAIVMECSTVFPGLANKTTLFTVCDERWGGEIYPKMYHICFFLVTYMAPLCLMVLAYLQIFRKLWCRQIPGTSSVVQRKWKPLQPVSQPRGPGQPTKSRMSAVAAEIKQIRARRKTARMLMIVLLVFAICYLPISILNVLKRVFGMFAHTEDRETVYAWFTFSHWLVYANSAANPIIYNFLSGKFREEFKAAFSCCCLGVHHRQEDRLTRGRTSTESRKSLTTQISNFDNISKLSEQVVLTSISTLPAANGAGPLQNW
Test: In vitro assay: intracellular calcium measurements (FLIPR), antagonistic activity
Type: cell-based
Details: CHO cells, 3 nM orexin-A, compound incubation 120 min; marked values are geometric means of n = 2-6; read-out: IC50 OX2
Response field label: string, one of True (IC50 strictly below 60 nM) or False.

Req: Check if IC50 falls below 60 nM for COc1cccc(OC)c1C1CCC(=O)N1Cc1ccc(Oc2ccccc2)cc1 (stereo not drawn) .
Resp: True

Req: Check if IC50 falls below 60 nM for COc1cccc(OC)c1C1CCC(=O)N1Cc1cccc(N2CCCCC2)c1 (stereo not drawn) .
Resp: False

Req: Please indicate whether the reported IC50 of COc1cccc(OC)c1C1CCCCC(=O)N1Cc1cccc(-c2ccccc2)c1 (stereo not drawn) is strictly below 60 nM.
Resp: True

Req: For COc1ccc2nc(C)oc2c1C1CCCC(=O)N1Cc1cccc(-c2ccccc2)c1 (stereo not drawn) , is the recorded IC50 below the cut-off of 60 nM?
Resp: False

Req: Criterion: IC50 strictly below 60 nM. Is it met by COc1cccc(F)c1C1CC(C)C(=O)N1Cc1cccc(-c2ncc(C)s2)c1 (stereo not drawn) ?
Resp: True

Req: Quick check: does CCOc1c(F)cccc1[C@@H]1C[C@H](F)C(=O)N1Cc1ccc(OC(F)(F)F)cc1 (racemic) have IC50 under 60 nM?
Resp: False

Req: Below 60 nM on IC50? Entry COc1cccc(OC)c1C1CC(C)C(=O)N1Cc1cccc(-c2csc(C)n2)c1 (stereo not drawn)
Resp: True

Req: Identify whether the molecule COc1ccc2ncoc2c1C1CCCC(=O)N1Cc1ccc2ccccc2n1 (stereo not drawn) records IC50 below 60 nM.
Resp: False

Req: Field: below-cutoff. Rule: recorded IC50 strictly less than 60 nM. Subject: COc1ccnc(OC)c1C1CCCC(=O)N1Cc1csc(-c2ccccc2)n1 (stereo not drawn)
Resp: True

Req: Item COc1cccc(OC)c1C1CCCCC(=O)N1Cc1ccc2ccccc2c1 (stereo not drawn) : IC50 beneath 60 nM, strictly?
Resp: True

Req: Please let me know if COc1cccc(F)c1C1CC(C)C(=O)N1Cc1ccnc(-c2nc(C)cs2)c1 (stereo not drawn) shows IC50 below 60 nM.
Resp: True

Req: A record lists CCOc1cccc(F)c1[C@@H]1C[C@H](Cl)C(=O)N1Cc1ccc(OC(F)(F)F)c(F)c1 (racemic) . Is its IC50 below 60 nM?
Resp: True

Req: API: query returns whether the molecule falls strictly under 60 nM in IC50. Query: COc1cccc(OC)c1C1CC(C)C(=O)N1Cc1cccc(OC(F)(F)C(F)F)c1 (stereo not drawn)
Resp: True

Req: Answer whether the molecule COc1cccc(OC)c1C1CCCC(=O)N1Cc1cccc(-c2nccs2)n1 (stereo not drawn) has IC50 strictly less than 60 nM
Resp: False

Req: is_below(IC50, 60 nM) for COc1cccc(OC)c1C1CCCC(=O)N1Cc1cccc(-n2ccnn2)c1 (stereo not drawn) ?
Resp: False

Req: For this molecule, is IC50 lower than 60 nM? COc1cccc(F)c1C1CC(C)C(=O)N1Cc1csc(-c2ccc(C)cc2)n1 (stereo not drawn)
Resp: True

Req: Please let me know if COc1cccc(OC)c1C1CCCC(=O)N1Cc1csc(C)n1 (stereo not drawn) shows IC50 below 60 nM.
Resp: False

Req: Confirm or reject: IC50 of O=C1CCCC(c2cccc3c2OCCO3)N1Cc1cccc(-c2ccccc2)c1 (stereo not drawn) lies strictly below 60 nM
Resp: False

---

Molecular target: human orexin-1 receptor (Homo sapiens (Human))
Test: In vitro assay: intracellular calcium measurements (FLIPR), antagonistic activity
Assay type: cell-based
Conditions: CHO cells, 3 nM orexin-A, compound incubation time of 10 min; marked values are geometric means of n = 2-6; read-out: IC50 OX1
readout label: IC50 (nM)
Provide only the numeric value, understood in nM.

Req: Please report the recorded IC50 for COc1cccc(Cl)c1C1CCCC(=O)N1Cc1ccc(OC(F)(F)F)cc1 (stereo not drawn) .
Resp: 4880

Req: Which IC50 value belongs to COc1cc(Cl)cc(OC)c1C1CCCC(=O)N1Cc1ccc(OC(F)(F)F)cc1 (stereo not drawn) ?
Resp: 231

Req: Please report the recorded IC50 for CCC(c1ccc(OC(F)(F)F)cc1)N1C(=O)CCCC1c1c(OC)cccc1OC (stereo not drawn) .
Resp: 2770

Req: For COc1cccc(OC)c1C1CCCC(=O)N1Cc1ccc(OC(F)(F)F)c(Cl)c1 (stereo not drawn) , what is its reported IC50?
Resp: 147

Req: # IC50 lookup, item COc1cccc(OC)c1C1CC(C)C(=O)N1Cc1cc(OC(F)F)ccn1 (stereo not drawn)
Resp: 6380

Req: Which value of IC50 has been reported for COc1cccc(OC)c1C1CCCC(=O)N1Cc1ccc2ccccc2c1 (stereo not drawn) in the records?
Resp: 77

Req: Suppose we examine the compound COc1cccc(OC)c1C1CC(C)C(=O)N1Cc1cccc(OC(F)(F)F)c1 (stereo not drawn) ; what IC50 value has been reported?
Resp: 108

Req: Could you share which IC50 value was measured for COc1cccc(OC)c1C1CCCC(=O)N1Cc1ccc(OC(F)F)nc1 (stereo not drawn) ?
Resp: 354

Req: Please give the measured IC50 for this compound: COc1cccc(OC)c1C1CCCC(=O)N1Cc1ccc(Oc2ccccc2)cc1 (stereo not drawn)
Resp: 409

---

Target: human orexin-1 receptor (Homo sapiens (Human), UniProt O43613)
Test: In vitro assay: intracellular calcium measurements (FLIPR), antagonistic activity
Assay type: cell-based
Settings: CHO cells, 3 nM orexin-A, compound incubation 120 min; marked values are geometric means of n = 2-6; read-out: IC50 OX1
readout label: IC50 (nM)
Please reply with the bare figure in nM and do not write the unit itself.

Req: Enter reported IC50 observed with human orexin-1 receptor (Homo sapiens (Human), UniProt O43613) for COc1cccc(OC)c1C1CCCC(=O)N1Cc1cccc(-c2ccccn2)n1 (stereo not drawn)
Resp: 153

Req: Lab note: need IC50 for COc1cccc(OC)c1C1CCCCC(=O)N1Cc1cncc(-c2ccccc2)c1 (stereo not drawn) on human orexin-1 receptor (Homo sapiens (Human), UniProt O43613), anyone have it?
Resp: 1060

Req: What is its IC50 for human orexin-1 receptor (Homo sapiens (Human), UniProt O43613)? Entry: CCOc1cccc(F)c1C1CC(C)C(=O)N1Cc1ccnc(-c2ncc(C)s2)c1 (stereo not drawn)
Resp: 131

Req: Item COc1cccc(OC)c1C1CC(C)C(=O)N1Cc1csc(-c2ccccc2)n1 (stereo not drawn) with human orexin-1 receptor (Homo sapiens (Human), UniProt O43613) - IC50?
Resp: 28

Req: Could you share what IC50 was measured for COc1cccc(OC)c1C1CC(C)C(=O)N1Cc1ccnc(-n2cccn2)c1 (stereo not drawn) , tested on human orexin-1 receptor (Homo sapiens (Human), UniProt O43613)?
Resp: 10

Req: Test system human orexin-1 receptor (Homo sapiens (Human), UniProt O43613); read-out IC50; what value for COc1cccc(OC)c1C1CCCCC(=O)N1Cc1ccc(F)c(-c2ccccn2)c1 (stereo not drawn) ?
Resp: 4

Req: Request - read-out IC50 | tested on human orexin-1 receptor (Homo sapiens (Human), UniProt O43613) | compound COc1cccc(OC)c1C1CCCCC(=O)N1Cc1cccc(-c2cscn2)c1 (stereo not drawn)
Resp: 6

Req: // lookup IC50 | system=human orexin-1 receptor (Homo sapiens (Human), UniProt O43613) | key= COc1cccc(OC)c1C1CC(C)C(=O)N1Cc1ccc2oc3ccccc3c2c1 (stereo not drawn)
Resp: 2

Req: Query for human orexin-1 receptor (Homo sapiens (Human), UniProt O43613): what IC50 does the record show for COc1cccc(OC)c1C1CC(C)C(=O)N1Cc1cccc(-n2cccn2)c1 (stereo not drawn) ?
Resp: 23
